Reported Activity values for the following compounds.
Test system: Mus musculus
TEST DESCRIPTION: Antidepressant activity in Mus musculus albino (mouse) assessed as reversal of reserpine-induced ptosis at 75 umole/kg, ip after 3 hr by chi-square test relative to control
Assay type: functional
A number alone suffices; assume %.

Known Activity results, listed for orientation:
- CN(CCC(Oc1ccc(C(F)(F)F)cc1)c1ccccc1)C(=S)NC1CCCCC1 (stereo not drawn): 100
- CC1CCC(NC(=S)N(C)CCC(Oc2ccc(C(F)(F)F)cc2)c2ccccc2)CC1 (stereo not drawn): 60
- CN(C[C@@H]1CCc2ccccc2[C@@H]1Oc1ccc(C(F)(F)F)cc1)C(=S)NCCc1ccccc1: 100

Quick check: Activity of CN(CCC(Oc1ccc(C(F)(F)F)cc1)c1ccccc1)C(=S)NCc1ccccc1 (stereo not drawn) ?
100

Please give the measured Activity for this compound: CN(CCC(Oc1ccc(C(F)(F)F)cc1)c1ccccc1)C(=S)Nc1ccccc1 (stereo not drawn)
100

Endpoint output: Activity of COC(=O)[C@H]1[C@H]2C[C@@H]3c4[nH]c5cc(OC)ccc5c4CCN3C[C@H]2C[C@@H](OC(=O)c2cc(OC)c(OC)c(OC)c2)[C@@H]1OC . Value?
100

Query: Activity; subject: Cc1ccc(NC(=S)N(C)CCC(Oc2ccc(C(F)(F)F)cc2)c2ccccc2)cc1 (stereo not drawn)
80

What value of Activity has been recorded for this entry: CN(C[C@@H]1CCc2ccccc2[C@@H]1Oc1ccc(C(F)(F)F)cc1)C(=O)NCCc1ccccc1
100
